measuredOn: T1, mouse programmed cell death protein 1 Fc fusion protein (mPD-1-Fc), mPD-1 C60S (aa 25-167) (Mus musculus, UniProt Q02242, stabilised)
T1 construct: not cleaved; source: Expi293F, purified (Protein A, SEC; dimeric fraction); not shown: Fc (human), C-terminal, kept
testDetails: SPR; Carterra LSA; Fab from the ammonium sulfate precipitate of the culture supernatant immobilised on a NiHC200M chip; hPD-1 (1-1024 nM) or mPD-1-Fc (4-1024 nM) as analyte, fourfold dilution series, no regeneration; HBS-EP pH 7.4, 25 °C; medians over the spots of a construct, KD = koff/kon
condition: one partner purified
measurementKind: koff

## Input // query koff value for entry toripalimab Fab H.M34Y (Fab, V domains shown, heavy chain of Sm3 with this change; numbers count from the chain's first residue; as the light chain of Sm3; source: Brevibacillus, culture supernatant (ammonium sulfate precipitate); not shown: 6xHis, C-terminal, kept; 6xHN, C-terminal, kept) VH: QGQLVQSGAEVKKPGASVKVSCKASGYTFTDYEYHWVRQAPIHGLEWIGVIESETGGTAYNQKFKGRVTITADKSTSTAYMELSSLRSEDTAVYYCAREGITTVATTYYWYFDVWGQGTTVTVSS VL: DVVMTQSPLSLPVTLGQPASISCRSSQSIVHSNGNTYLEWYLQKPGQSPQLLIYKVSNRFSGVPDRFSGSGSGTDFTLKISRVEAEDVGVYYCFQGSHVPLTFGQGTKLEIK
## Output 0.00793 s⁻¹

## Input Item under review: toripalimab Fab L.N35A (Fab, V domains shown, as the heavy chain of Sm3; light chain of Sm3 with this change; numbers count from the chain's first residue; source: Brevibacillus, culture supernatant (ammonium sulfate precipitate); not shown: 6xHis, C-terminal, kept; 6xHN, C-terminal, kept) VH: QGQLVQSGAEVKKPGASVKVSCKASGYTFTDYEMHWVRQAPIHGLEWIGVIESETGGTAYNQKFKGRVTITADKSTSTAYMELSSLRSEDTAVYYCAREGITTVATTYYWYFDVWGQGTTVTVSS VL: DVVMTQSPLSLPVTLGQPASISCRSSQSIVHSNGATYLEWYLQKPGQSPQLLIYKVSNRFSGVPDRFSGSGSGTDFTLKISRVEAEDVGVYYCFQGSHVPLTFGQGTKLEIK . Reported koff?
## Output 0.00781 s⁻¹
